Reference source: patent EP4745130A1

// reported S: solubility per item
Experiment Description: Dynamic solubility experiment at 37°C (water, SGF, FaSSIF, FeSSIF)
Reported Conditions: SGF, 1 hour, solid feed 10 mg/mL, 60 min
Counter-ions that a name gives are not always drawn.
Assay Readout: S: solubility (mg/mL)

Compound: Cc1cc(OCCN2C[C@H]3COC[C@H]3C2)ccc1-c1ccc(CC(=O)NCc2ccccc2)nc1 [Crystal form A of phosphate salt]
Unit Abbrev: mg/mL
Data Value: 9.14

Compound: Cc1cc(OCCN2C[C@H]3COC[C@H]3C2)ccc1-c1ccc(CC(=O)NCc2ccccc2)nc1 [Crystal form A of benzenesulfonate salt]
Unit Abbrev: mg/mL
Data Value: 9.94

Compound: Cc1cc(OCCN2C[C@H]3COC[C@H]3C2)ccc1-c1ccc(CC(=O)NCc2ccccc2)nc1 [Crystal form B of oxalate salt]
Unit Abbrev: mg/mL
Data Value: 9.99

Compound: Cc1cc(OCCN2C[C@H]3COC[C@H]3C2)ccc1-c1ccc(CC(=O)NCc2ccccc2)nc1 [Free form crystal form A]
Unit Abbrev: mg/mL
Data Value: 6.71

----------
// reported pH per item
Experiment Description: Dynamic solubility experiment at 37°C (water, SGF, FaSSIF, FeSSIF)
Reported Conditions: pH value of the filtrate, FeSSIF, 4 hours
Where a name gives a salt, the structure may show the parent alone.
Assay Readout: pH

Molecule: Cc1cc(OCCN2C[C@H]3COC[C@H]3C2)ccc1-c1ccc(CC(=O)NCc2ccccc2)nc1 [Free form crystal form A]
Assay Readout: pH
Data Value: 5.4
//
Molecule: Cc1cc(OCCN2C[C@H]3COC[C@H]3C2)ccc1-c1ccc(CC(=O)NCc2ccccc2)nc1 [Crystal form A of benzenesulfonate salt]
Assay Readout: pH
Data Value: 4.9
//
Molecule: Cc1cc(OCCN2C[C@H]3COC[C@H]3C2)ccc1-c1ccc(CC(=O)NCc2ccccc2)nc1 [Crystal form A of phosphate salt]
Assay Readout: pH
Data Value: 4.9
//
Molecule: Cc1cc(OCCN2C[C@H]3COC[C@H]3C2)ccc1-c1ccc(CC(=O)NCc2ccccc2)nc1 [Crystal form A of fumarate salt]
Assay Readout: pH
Data Value: 4.6

----------
Experiment Description: physchem
Reported Conditions: sgf
Counter-ions that a name gives are not always drawn.
Assay Readout: solubility at 1 h (µg/mL)

Molecule: Cc1cc(OCCN2C[C@H]3COC[C@H]3C2)ccc1-c1ccc(CC(=O)NCc2ccccc2)nc1 [Crystal form A of fumarate salt]
Data Value: 9650

----------
Experiment Description: Dynamic solubility experiment at 37°C (water, SGF, FaSSIF, FeSSIF)
Reported Conditions: FaSSIF, 1 hour, solid feed 10 mg/mL, 60 min
Where a name gives a salt, the structure may show the parent alone.
// reported S: solubility per item
Assay Readout: S: solubility (µg/mL)

Molecule: Cc1cc(OCCN2C[C@H]3COC[C@H]3C2)ccc1-c1ccc(CC(=O)NCc2ccccc2)nc1 [Crystal form A of benzenesulfonate salt]
Assay Readout: S: solubility
Data Value: 3980
//
Molecule: Cc1cc(OCCN2C[C@H]3COC[C@H]3C2)ccc1-c1ccc(CC(=O)NCc2ccccc2)nc1 [Crystal form A of fumarate salt]
Assay Readout: S: solubility
Data Value: 8720
//
Molecule: Cc1cc(OCCN2C[C@H]3COC[C@H]3C2)ccc1-c1ccc(CC(=O)NCc2ccccc2)nc1 [Crystal form A of phosphate salt]
Assay Readout: S: solubility
Data Value: 6630
//
Molecule: Cc1cc(OCCN2C[C@H]3COC[C@H]3C2)ccc1-c1ccc(CC(=O)NCc2ccccc2)nc1 [Crystal form B of oxalate salt]
Assay Readout: S: solubility
Data Value: 9270
//
Molecule: Cc1cc(OCCN2C[C@H]3COC[C@H]3C2)ccc1-c1ccc(CC(=O)NCc2ccccc2)nc1 [Free form crystal form A]
Assay Readout: S: solubility
Data Value: 720

----------
Experiment Description: physchem
Reported Conditions: fessif
Counter-ions that a name gives are not always drawn.
Assay Readout: solubility at 24 h (mg/mL)

Compound: Cc1cc(OCCN2C[C@H]3COC[C@H]3C2)ccc1-c1ccc(CC(=O)NCc2ccccc2)nc1 [Crystal form A of fumarate salt]
Assay Readout: solubility at 24 h
Data Value: 3.61

----------
Experiment Description: Solid-state stability (XRPD and HPLC after open storage)
Assay type: physicochemical
Reported Conditions: 40°C/75%RH/open, 1 week
Structures can show the parent of a compound that is named as a salt.
// reported Purity (area%) per item

Compound: Cc1cc(OCCN2C[C@H]3COC[C@H]3C2)ccc1-c1ccc(CC(=O)NCc2ccccc2)nc1 [Crystal form A of fumarate salt]
Unit Abbrev: area%
Purity (area%): 97.09
--
Compound: Cc1cc(OCCN2C[C@H]3COC[C@H]3C2)ccc1-c1ccc(CC(=O)NCc2ccccc2)nc1 [Crystal form A of phosphate salt]
Unit Abbrev: area%
Purity (area%): 97.55
--
Compound: Cc1cc(OCCN2C[C@H]3COC[C@H]3C2)ccc1-c1ccc(CC(=O)NCc2ccccc2)nc1 [Crystal form B of oxalate salt]
Unit Abbrev: area%
Purity (area%): 97.52
--
Compound: Cc1cc(OCCN2C[C@H]3COC[C@H]3C2)ccc1-c1ccc(CC(=O)NCc2ccccc2)nc1 [Free form crystal form A]
Unit Abbrev: area%
Purity (area%): 96.70
--
Compound: Cc1cc(OCCN2C[C@H]3COC[C@H]3C2)ccc1-c1ccc(CC(=O)NCc2ccccc2)nc1 [Crystal form A of benzenesulfonate salt]
Unit Abbrev: area%
Purity (area%): 97.61

----------
// reported S: solubility per item
Experiment Description: Dynamic solubility experiment at 37°C (water, SGF, FaSSIF, FeSSIF)
Reported Conditions: FeSSIF, 1 hour, solid feed 10 mg/mL, 60 min
Counter-ions that a name gives are not always drawn.
Assay Readout: S: solubility (µg/mL)

Molecule: Cc1cc(OCCN2C[C@H]3COC[C@H]3C2)ccc1-c1ccc(CC(=O)NCc2ccccc2)nc1 [Crystal form B of oxalate salt]
Assay Readout: S: solubility
Data Value: 3800
//
Molecule: Cc1cc(OCCN2C[C@H]3COC[C@H]3C2)ccc1-c1ccc(CC(=O)NCc2ccccc2)nc1 [Free form crystal form A]
Assay Readout: S: solubility
Data Value: 3460
//
Molecule: Cc1cc(OCCN2C[C@H]3COC[C@H]3C2)ccc1-c1ccc(CC(=O)NCc2ccccc2)nc1 [Crystal form A of phosphate salt]
Assay Readout: S: solubility
Data Value: 5130
//
Molecule: Cc1cc(OCCN2C[C@H]3COC[C@H]3C2)ccc1-c1ccc(CC(=O)NCc2ccccc2)nc1 [Crystal form A of benzenesulfonate salt]
Assay Readout: S: solubility
Data Value: 3150

----------
Experiment Description: Dynamic solubility experiment at 37°C (water, SGF, FaSSIF, FeSSIF)
Reported Conditions: FaSSIF, 4 hours, solid feed 10 mg/mL, 240 min
Counter-ions that a name gives are not always drawn.
// reported S: solubility per item
Assay Readout: S: solubility (µg/mL)

Compound: Cc1cc(OCCN2C[C@H]3COC[C@H]3C2)ccc1-c1ccc(CC(=O)NCc2ccccc2)nc1 [Crystal form A of fumarate salt]
Assay Readout: S: solubility
Data Value: 8940

Compound: Cc1cc(OCCN2C[C@H]3COC[C@H]3C2)ccc1-c1ccc(CC(=O)NCc2ccccc2)nc1 [Crystal form B of oxalate salt]
Assay Readout: S: solubility
Data Value: 8890

Compound: Cc1cc(OCCN2C[C@H]3COC[C@H]3C2)ccc1-c1ccc(CC(=O)NCc2ccccc2)nc1 [Free form crystal form A]
Assay Readout: S: solubility
Data Value: 700

Compound: Cc1cc(OCCN2C[C@H]3COC[C@H]3C2)ccc1-c1ccc(CC(=O)NCc2ccccc2)nc1 [Crystal form A of benzenesulfonate salt]
Assay Readout: S: solubility
Data Value: 3640

Compound: Cc1cc(OCCN2C[C@H]3COC[C@H]3C2)ccc1-c1ccc(CC(=O)NCc2ccccc2)nc1 [Crystal form A of phosphate salt]
Assay Readout: S: solubility
Data Value: 6320

----------
// reported S: solubility per item
Experiment Description: Dynamic solubility experiment at 37°C (water, SGF, FaSSIF, FeSSIF)
Reported Conditions: FaSSIF, 24 hours, solid feed 10 mg/mL, 1440 min
Counter-ions that a name gives are not always drawn.
Assay Readout: S: solubility (mg/mL)

Compound: Cc1cc(OCCN2C[C@H]3COC[C@H]3C2)ccc1-c1ccc(CC(=O)NCc2ccccc2)nc1 [Crystal form A of benzenesulfonate salt]
Unit Abbrev: mg/mL
Data Value: 3.55

Compound: Cc1cc(OCCN2C[C@H]3COC[C@H]3C2)ccc1-c1ccc(CC(=O)NCc2ccccc2)nc1 [Crystal form A of phosphate salt]
Unit Abbrev: mg/mL
Data Value: 6.14

Compound: Cc1cc(OCCN2C[C@H]3COC[C@H]3C2)ccc1-c1ccc(CC(=O)NCc2ccccc2)nc1 [Crystal form A of fumarate salt]
Unit Abbrev: mg/mL
Data Value: 8.24

Compound: Cc1cc(OCCN2C[C@H]3COC[C@H]3C2)ccc1-c1ccc(CC(=O)NCc2ccccc2)nc1 [Crystal form B of oxalate salt]
Unit Abbrev: mg/mL
Data Value: 8.47

Compound: Cc1cc(OCCN2C[C@H]3COC[C@H]3C2)ccc1-c1ccc(CC(=O)NCc2ccccc2)nc1 [Free form crystal form A]
Unit Abbrev: mg/mL
Data Value: 0.63
